# % activity values compiled below
Molecular target: human calcium receptor (Homo sapiens, UniProt P41180, R990G)
Construct: expressed in transfected cells; host or cells: HEK 293
Sequence (P41180 20-1078 R990G): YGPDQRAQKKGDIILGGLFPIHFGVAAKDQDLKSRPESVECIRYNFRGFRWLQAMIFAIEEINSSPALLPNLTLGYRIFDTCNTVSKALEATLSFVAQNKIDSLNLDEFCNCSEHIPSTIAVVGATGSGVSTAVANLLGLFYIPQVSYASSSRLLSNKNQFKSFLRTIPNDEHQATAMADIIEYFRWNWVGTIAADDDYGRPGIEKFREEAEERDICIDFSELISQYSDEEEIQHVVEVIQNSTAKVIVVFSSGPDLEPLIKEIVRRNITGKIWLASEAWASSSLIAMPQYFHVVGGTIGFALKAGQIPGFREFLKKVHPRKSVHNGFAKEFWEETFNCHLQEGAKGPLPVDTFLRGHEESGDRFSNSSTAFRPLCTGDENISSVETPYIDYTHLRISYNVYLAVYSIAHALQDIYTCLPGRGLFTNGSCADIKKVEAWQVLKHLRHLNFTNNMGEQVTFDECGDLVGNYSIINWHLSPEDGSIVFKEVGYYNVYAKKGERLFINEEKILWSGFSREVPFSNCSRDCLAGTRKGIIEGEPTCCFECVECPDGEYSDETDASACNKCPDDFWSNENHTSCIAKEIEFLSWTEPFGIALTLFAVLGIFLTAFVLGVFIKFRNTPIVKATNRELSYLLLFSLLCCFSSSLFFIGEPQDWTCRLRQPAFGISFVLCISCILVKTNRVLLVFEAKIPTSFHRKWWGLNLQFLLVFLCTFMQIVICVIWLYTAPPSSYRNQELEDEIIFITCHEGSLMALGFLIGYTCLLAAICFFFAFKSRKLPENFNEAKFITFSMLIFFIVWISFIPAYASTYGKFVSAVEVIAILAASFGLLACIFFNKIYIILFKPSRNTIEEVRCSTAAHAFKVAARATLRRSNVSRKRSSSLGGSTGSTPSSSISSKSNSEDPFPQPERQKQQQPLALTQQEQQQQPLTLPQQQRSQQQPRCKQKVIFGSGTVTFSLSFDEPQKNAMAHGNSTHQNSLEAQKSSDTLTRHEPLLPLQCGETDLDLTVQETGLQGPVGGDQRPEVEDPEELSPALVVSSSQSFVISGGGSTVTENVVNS
Test: increases in [Ca^2+ ]i in HEK-293 cells expressing the human calcium receptor (fura-2 loaded HEK 293/pHuPCaR4.0 cells), % activity
Type: cell-based
Details: 3300 ng/mL
The response must be a number in % with no trailing unit.

Prompt: Quick check: % activity on human calcium receptor (Homo sapiens, UniProt P41180, R990G), item COc1ccc(CNC(C)c2ccccc2C)cc1C (stereo not drawn) [Compound 23W] ?
Response: 117

***
Prompt: Provide the documented % activity with human calcium receptor (Homo sapiens, UniProt P41180, R990G) as the system for COc1ccc(CNC(C)c2cccc(-c3ccccc3)c2)cc1C (stereo not drawn) [Compound 18T]
Response: 99

Prompt: Which % activity is reported with human calcium receptor (Homo sapiens, UniProt P41180, R990G) for this entry: COc1cccc([C@@H](C)NC[C@H](C)C=Cc2ccccc2)c1 [Compound 25H] ?
Response: 115

Prompt: Report % activity for COc1ccc(CNC(C)c2ccccc2C(F)(F)F)cc1C (stereo not drawn) [Compound 24B] tested on human calcium receptor (Homo sapiens, UniProt P41180, R990G).
Response: 76

Prompt: Request: % activity, test system human calcium receptor (Homo sapiens, UniProt P41180, R990G), entry COc1ccc(CNC(C)c2ccccc2Cl)cc1C (stereo not drawn) [Compound 23M]
Response: 113

Prompt: Query % activity on human calcium receptor (Homo sapiens, UniProt P41180, R990G) for C[C@@H](NCCCc1ccccc1Cl)c1cccc(OCC(F)F)c1 [Compound 21V]
Response: 122

Prompt: Please provide the recorded % activity for CC(NC(C)c1cccc2ccccc12)c1ccc(Cl)c(Cl)c1 (stereo not drawn) [Compound 17J] , tested on human calcium receptor (Homo sapiens, UniProt P41180, R990G).
Response: 116

Prompt: Item: COc1cccc([C@@H](C)NCC=Cc2ccccc2)c1 [Compound 25E] Test system: human calcium receptor (Homo sapiens, UniProt P41180, R990G) Read-out: % activity Value: ?
Response: 132

Prompt: For the record COc1ccc(CNC(C)c2cccc(Br)c2)cc1C (stereo not drawn) [Compound 23Q] , what value of % activity is listed for human calcium receptor (Homo sapiens, UniProt P41180, R990G)?
Response: 122

Prompt: Enter reported % activity observed with human calcium receptor (Homo sapiens, UniProt P41180, R990G) for COc1ccc(CNC(C)c2ccc(C(F)(F)F)cc2)cc1C (stereo not drawn) [Compound 24D]
Response: 87

Prompt: Could you share what % activity was measured for COc1cccc([C@@H](C)NCC=Cc2ccc(C)cc2)c1 [Compound 12B] , tested on human calcium receptor (Homo sapiens, UniProt P41180, R990G)?
Response: 130

Prompt: Lookup: % activity / human calcium receptor (Homo sapiens, UniProt P41180, R990G) / COc1ccc([C@H](C)N[C@H](C)c2cccc3ccccc23)cc1C [Compound 25U]
Response: 107

Prompt: Query % activity on human calcium receptor (Homo sapiens, UniProt P41180, R990G) for COc1ccc(CNC(C)c2ccc(I)cc2)cc1C (stereo not drawn) [Compound 23T]
Response: 102

Prompt: What measured % activity is associated with COc1cccc(C(C)NC(C)c2cccc(OC)c2)c1 (stereo not drawn) [Compound 16N] on human calcium receptor (Homo sapiens, UniProt P41180, R990G)?
Response: 122

Prompt: Under human calcium receptor (Homo sapiens, UniProt P41180, R990G): % activity value of COc1ccc(CNC(C)c2cccc(C)c2)cc1C (stereo not drawn) [Compound 23Y] ?
Response: 106

Prompt: Query for human calcium receptor (Homo sapiens, UniProt P41180, R990G): what % activity does the record show for CC(N[C@H](C)c1ccc2ccccc2c1)c1ccc(C(C)(C)C)cc1 (stereo partly drawn) [Compound 13F] ?
Response: 125

Prompt: Given the entry COc1cccc([C@@H](C)NCC(C)c2ccccc2)c1 (stereo partly drawn) [Compound 25M] , what % activity was observed with human calcium receptor (Homo sapiens, UniProt P41180, R990G)?
Response: 118

Prompt: Notebook: pull reported % activity for human calcium receptor (Homo sapiens, UniProt P41180, R990G), entry COc1cccc([C@@H](C)NCCCc2cc(F)cc(F)c2)c1 [Compound 24M]
Response: 132

Prompt: Record lookup: for human calcium receptor (Homo sapiens, UniProt P41180, R990G), what % activity belongs to CC(NC(C)c1ccc2ccccc2c1)c1ccc(C(C)(C)C)cc1 (mixture of isomers) [Compound 13I] ?
Response: 85

Prompt: Enter reported % activity observed with human calcium receptor (Homo sapiens, UniProt P41180, R990G) for CC(NCc1ccc(-c2ccccc2)cc1)c1cccc2ccccc12 (stereo not drawn) [Compound 10N]
Response: 106

Prompt: Observed % activity on human calcium receptor (Homo sapiens, UniProt P41180, R990G) for COc1ccc([C@@H](C)N[C@H](C)c2cccc(OC)c2)cc1 [Compound 16L] , please.
Response: 146

Prompt: What measured % activity is associated with CC(NC(C)c1ccc(C(C)(C)C)cc1)c1ccccc1 (stereo not drawn) [Compound 13E] on human calcium receptor (Homo sapiens, UniProt P41180, R990G)?
Response: 123
